Data origin, for the record: patent US20210388087A1

target: Human CD137 ECD (human); experiment: single mutant vs template dBBDu183H
Sequence (chain, as listed by the source limits assumed): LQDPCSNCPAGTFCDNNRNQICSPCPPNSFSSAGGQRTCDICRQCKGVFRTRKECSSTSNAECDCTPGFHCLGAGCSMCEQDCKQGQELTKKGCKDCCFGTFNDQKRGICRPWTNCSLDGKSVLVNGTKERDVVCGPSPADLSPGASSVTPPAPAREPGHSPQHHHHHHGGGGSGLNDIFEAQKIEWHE
# fold change of affinity listing for each entry below
Form entry: value (fold) — number only.

1) H183/L072 VH W33M (antibody, name in Kabat numbering, V domains shown) VH: QVQLVESGGGLVQPGRSLRLSCAASGFTFSNAMMHWVRQAPGKGLEWVAQIKDKGNAYAAYYAPSVKGRFTISRDDSKNSIYLQMNSLKTEDTAVYYCHYVHYASASTVLPAFGVDAWGQGTTVTVSS VL: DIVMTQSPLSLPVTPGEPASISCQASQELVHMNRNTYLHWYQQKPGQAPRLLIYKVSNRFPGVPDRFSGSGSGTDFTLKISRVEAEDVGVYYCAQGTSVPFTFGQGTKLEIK : 0
2) H183/L072 VH W33F (antibody, name in Kabat numbering, V domains shown) VH: QVQLVESGGGLVQPGRSLRLSCAASGFTFSNAFMHWVRQAPGKGLEWVAQIKDKGNAYAAYYAPSVKGRFTISRDDSKNSIYLQMNSLKTEDTAVYYCHYVHYASASTVLPAFGVDAWGQGTTVTVSS VL: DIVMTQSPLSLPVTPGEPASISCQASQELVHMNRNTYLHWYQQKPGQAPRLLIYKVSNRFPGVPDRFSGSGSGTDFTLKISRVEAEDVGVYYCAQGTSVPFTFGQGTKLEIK : 0
3) H183/L072 VH N31K (antibody, name in Kabat numbering, V domains shown) VH: QVQLVESGGGLVQPGRSLRLSCAASGFTFSKAWMHWVRQAPGKGLEWVAQIKDKGNAYAAYYAPSVKGRFTISRDDSKNSIYLQMNSLKTEDTAVYYCHYVHYASASTVLPAFGVDAWGQGTTVTVSS VL: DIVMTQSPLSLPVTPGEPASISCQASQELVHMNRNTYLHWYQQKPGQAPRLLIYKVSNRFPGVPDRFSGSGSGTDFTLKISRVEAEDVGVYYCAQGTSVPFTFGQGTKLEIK : 0
4) H183/L072 VH A32W (antibody, name in Kabat numbering, V domains shown) VH: QVQLVESGGGLVQPGRSLRLSCAASGFTFSNWWMHWVRQAPGKGLEWVAQIKDKGNAYAAYYAPSVKGRFTISRDDSKNSIYLQMNSLKTEDTAVYYCHYVHYASASTVLPAFGVDAWGQGTTVTVSS VL: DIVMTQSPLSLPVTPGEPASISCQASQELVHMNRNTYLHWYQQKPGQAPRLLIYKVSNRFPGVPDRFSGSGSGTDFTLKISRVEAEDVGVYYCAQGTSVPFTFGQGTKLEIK : 0

Given the entry H183/L072 VH W33N (antibody, name in Kabat numbering, V domains shown) VH: QVQLVESGGGLVQPGRSLRLSCAASGFTFSNANMHWVRQAPGKGLEWVAQIKDKGNAYAAYYAPSVKGRFTISRDDSKNSIYLQMNSLKTEDTAVYYCHYVHYASASTVLPAFGVDAWGQGTTVTVSS VL: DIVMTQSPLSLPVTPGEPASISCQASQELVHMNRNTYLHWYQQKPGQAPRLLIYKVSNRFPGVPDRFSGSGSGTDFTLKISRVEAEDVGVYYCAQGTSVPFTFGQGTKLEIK , report its measured fold change of affinity. 0
